Source of measurements: paper PMC12864922

# binding signal values compiled below
- target.or.test.system: TDP-43 (Homo sapiens, UniProt Q13148 1-414)
- Sequence (Q13148 whole entry): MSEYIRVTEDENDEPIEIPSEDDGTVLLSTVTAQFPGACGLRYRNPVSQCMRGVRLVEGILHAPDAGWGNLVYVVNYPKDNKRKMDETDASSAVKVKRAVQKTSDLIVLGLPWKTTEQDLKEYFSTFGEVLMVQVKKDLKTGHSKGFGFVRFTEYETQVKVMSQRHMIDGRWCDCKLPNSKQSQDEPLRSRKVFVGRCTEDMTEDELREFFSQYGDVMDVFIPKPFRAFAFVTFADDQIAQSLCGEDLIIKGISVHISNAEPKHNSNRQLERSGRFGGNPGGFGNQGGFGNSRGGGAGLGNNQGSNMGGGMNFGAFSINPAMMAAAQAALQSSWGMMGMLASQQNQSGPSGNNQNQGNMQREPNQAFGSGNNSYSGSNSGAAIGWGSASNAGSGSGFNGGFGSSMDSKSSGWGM
- method.description: RNA Bind-n-Seq with designed 260-mer pool; 25 mM Tris-HCl, 150 mM KCl, 3 mM MgCl2, BSA (printed 500 mg/mL), 20 units/mL SUPERase IN; pH not stated; 500 nM RNA pool, 1 h, 4 C; TDP-43 5, 50, 500 nM; high values mean tight binding
- assay.conditions: protein: recombinant; tags: SBP (GST cleaved off with PreScission; pGEX-GST-SBP)
The full ranking holds about 9,900 sequences; the median of “r (bound/input frequency ratio)” is about 0.7, and the highest 2% start at about 6.5. For the sample, the highest values were picked, then their nearest neighbours and some sequences at random.

>  <binder>
ENSMUSG00000061578.1461|Ksr2|72:76 (ssRNA) RNA: GGGAGUUCUACAGUCCGACGAUCGCUUCGAUAUCCGCAUGCUAUGAAUGGAUGGGUAGGUGGGUAGAUAGGUAUAUGAAUGAAUGGAUGAAUGGAUGGGUGAAUGGAUGGAUAGCAUACUGAAUAAAUGGAUGGAUGGAUGGAUUGAUUUGUGAAUGAAUGGAUGAAUGGAUGGGUAGGUGGGUGGAUGCAUAGGCAAGUAGAUGAAUGAAUAUGUGGGUAGAAGGGUGAGUGGGUGGAUGAAUGGAUGGAUAGGUUGGUAGGUUAAUGUAUUCGUGGAUGGGUGAAUGGAUGGAUGGAUAGACUCUUGCGGUCGCACUAGUGUGGAAUUCUCGGGUGUCAAGG

>  <binding signal>
4.58 R (bound/input frequency ratio)

$$$$
>  <binder>
ENSMUSG00000061578.1457|Ksr2|1:5;96:100 (ssRNA) RNA: GGGAGUUCUACAGUCCGACGAUCGCUUCGAUAUCCGCAUGCUACAUACUGAAUGAAUGGAUGAUGGAUGAAUGGAUGGGUAGGUGGGUAGAUAGGUAUAUGAAUGAAUGGAUGAAUGGAUGGGUGAAUGGAUGGAUAGCAUACUGAAUAAAUGGAUGGAUGGAUGGAUUGAUUUGUGAAUGAAUGGAUGAAUGGAUGGGUAGGUGGGUGGAUGCAUAGGCAAGUAGAUGAAUGAAUAUGUGGGUAGAAGGGUGAGUGGGUGGAUGAAUGGAUGGAUAGGUUGGUAGGUUAAUGUAUUCGUGGACUCUUGCGGUCGCACUAGUGUGGAAUUCUCGGGUGUCAAGG

>  <binding signal>
5.06 R (bound/input frequency ratio)

$$$$
>  <binder>
ENSMUSG00000061578.638|Ksr2 (ssRNA) RNA: GGGAGUUCUACAGUCCGACGAUCGCUUCGAUAUCCGCAUGCUAAGGAAUGGUGCUAGCUAGGGUGUGAGCCAAGCCCUUGAGGCUACUGUGAGUUAUGAGAUGUGUCCAACCCUCAGCCCACAGACUGCAUAUGCCCCAGGACAGCUGUGAAGGUGACCCAAUACAAAAUCGUAAACUAACUUAAAACCAUUAAGGGUUUUUGUUUUGUUGUUGUUUGCUGGCUUUUUGUUUUUUGGGUUGGUUUUCUUUUUCUUUCUUUCUUUUUUUUUUUUUUUUCCAACUCAAGUGUGAACUUUGUUGAUCUCUUGCGGUCGCACUAGUGUGGAAUUCUCGGGUGUCAAGG

>  <binding signal>
0.297 R (bound/input frequency ratio)

$$$$
>  <binder>
ENSMUSG00000031028.156|Tub|40:45;125:130 (ssRNA) RNA: GGGAGUUCUACAGUCCGACGAUCGCUUCGAUAUCCGCAUGCUAAGCUCCCAUUAUUGCCAGCAUGCCAUGAUCAGUGAGGGCACACACCCAUGCUUAGGGGGAUGGCGCAGGGUGAGGGGAGCAGAGGAUAUUUUAGGGCCACAAGAGCUCAGAGGUAGCGGACCUCACACACGUUCACCAACAGCAAUGCUGAUCCCUGAGUAUAGGGCACAUGUCUCUUGGUUACCUCACUGGUUAAUGGCAGAGUUGAGAACCUCAAAUUCUUUUGUUCCUACUGUUGCCCAGAAACUAGACUCUCUGACCUCUUGCGGUCGCACUAGUGUGGAAUUCUCGGGUGUCAAGG

>  <binding signal>
0.266 R (bound/input frequency ratio)

$$$$
>  <binder>
ENSMUSG00000061578.1458|Ksr2|90:94 (ssRNA) RNA: GGGAGUUCUACAGUCCGACGAUCGCUUCGAUAUCCGCAUGCUAGAAUGAAUGGAUGAUGGAUGAAUGGAUGGGUAGGUGGGUAGAUAGGUAUAUGAAUGAAUGGAUGAAUGGAUGGGUGAAUGGAUGGAUAGCAUACUGAAUAAAUGGAUGGAUGGAUGGAUUGAUUUGUGAAUGAAUGGAUGAAUGGAUGGGUAGGUGGGUGGAUGCAUAGGCAAGUAGAUGAAUGAAUAUGUGGGUAGAAGGGUGAGUGGGUGGAUGAAUGGAUGGAUAGGUUGGUAGGUUAAUGUAUUCGUGGAUGGGUGCUCUUGCGGUCGCACUAGUGUGGAAUUCUCGGGUGUCAAGG

>  <binding signal>
6.91 R (bound/input frequency ratio)

$$$$
>  <binder>
ENSMUSG00000061578.707|Ksr2|13:17 (ssRNA) RNA: GGGAGUUCUACAGUCCGACGAUCGCUUCGAUAUCCGCAUGCUACCUGUAGUCUCUACACACAUCUUCUUCUAAGACCACUAAUAACACCGCCUUUCUCCUUGAUCCGGGCCUCAGACCUCUUCAGAGAUUCUUUCUCUGAAUGUACGUGGGGGACUCCAACAGAUGUUGGGAGAAGACUCAAUAUGAGCAUACGGGGUCAUUGUUCAAUCCUGUAUCAAGACCUUGGAGUUGUCUAAGGCUGUGGGUUUUAAAUACCUGCUGCAGGCCUCCCAUCUCUGGCUCUUUGUUUCCACUCUGGCCCACUCUUGCGGUCGCACUAGUGUGGAAUUCUCGGGUGUCAAGG

>  <binding signal>
0.284 R (bound/input frequency ratio)

$$$$
>  <binder>
ENSMUSG00000058297.112|Spock2|39:44 (ssRNA) RNA: GGGAGUUCUACAGUCCGACGAUCGCUUCGAUAUCCGCAUGCUAUACUAUCCGUCUCCUGACAUCCGAAGAGCUCGUCGCAGCACACACUAAUGGCCCUUGGGCUGCACGUGGUUAAGCAUAGCUGUCUCUGUGGCCCAACACAAAGAGGUAAACUUACUUAAAACACAGGGGUUUUGUUGCUGUUUGUUUUUUGUUAGUUUGUUUGUUGAUAAUUGGAUUGAGGAGUUAAUCCUCUGUCACAAUGUCAAAAGCAUGGACAUCCCUGAUAGAUUAUCUCUCAACCUAGUCCCGAGUAACCAGAGCUCUUGCGGUCGCACUAGUGUGGAAUUCUCGGGUGUCAAGG

>  <binding signal>
1.33 R (bound/input frequency ratio)

$$$$
